This collection of values is drawn from paper PMC12239253.

Target: glycoprotein B (gB) (Human alphaherpesvirus 1 strain 17, UniProt P10211)
Assay: surface plasmon resonance
pKd: −log10 of the molar value.
Value Type: pKd

C=C1CC/C=C(\C)CC[C@@H]2[C@@H]1CC2(C)C [BCP, β-caryophyllene] | 5.37
